STUDY TARGET: Dual specificity protein phosphatase 6 (Rattus norvegicus) (UniProt Q64346)
Sequence (Q64346 whole entry, looked up): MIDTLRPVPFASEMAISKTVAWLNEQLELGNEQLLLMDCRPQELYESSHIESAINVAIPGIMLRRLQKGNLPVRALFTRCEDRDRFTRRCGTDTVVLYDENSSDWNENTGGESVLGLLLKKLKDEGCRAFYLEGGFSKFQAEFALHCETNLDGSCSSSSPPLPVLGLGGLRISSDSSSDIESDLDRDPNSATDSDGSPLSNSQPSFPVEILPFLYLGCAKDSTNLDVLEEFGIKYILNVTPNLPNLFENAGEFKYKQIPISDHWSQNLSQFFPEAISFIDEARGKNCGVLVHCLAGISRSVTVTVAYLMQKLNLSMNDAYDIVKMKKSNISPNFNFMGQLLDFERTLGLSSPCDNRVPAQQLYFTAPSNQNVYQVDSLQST
ASSAY NOTES: MKP-3 phosphatase inhibitors, primary screen, biochemical, rat enzyme, in vitro (AID 425);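 also: plate controls were vehicle for no effect and reference inhibitor for full effect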
CONDITION SUMMARY: recombinant MKP-3 phosphatase activity, fluorescence; at 20 µM
Screen size: about 110,000 compounds; about 190 (0.17%) were called active. Rule as the data show it: active = inhibition above about 50%; inactive = the rest. What follows is part of a selection rich in actives, with near analogues and random picks from the rest. Entries with a potency or affinity are not part of this list.
Return exactly one item of active, inactive

{"MOLECULE": "C=C(C)Cn1c(SCC(=O)NN)nnc1-c1ccc(Br)cc1", "ASSIGNED CATEGORY": "inactive"}
{"MOLECULE": "CCn1nc(NC(=O)c2ccncc2)c2cc3cc(C)ccc3nc21", "ASSIGNED CATEGORY": "inactive"}
{"MOLECULE": "CCC(=O)N1c2ccc(S(=O)(=O)CCC(=O)N3CCn4c3nc3ccccc34)cc2CC1C (stereo not given)", "ASSIGNED CATEGORY": "inactive"}
{"MOLECULE": "Cc1ccc(/C(O)=C2\\C(=O)C(=O)N(CCCC(=O)O)C2c2ccccc2)cc1 (stereo not given)", "ASSIGNED CATEGORY": "inactive"}
{"MOLECULE": "O=C(/C=C/c1ccco1)/C=C/c1ccc(-c2ccc(Cl)c(Cl)c2)o1", "ASSIGNED CATEGORY": "active"}
{"MOLECULE": "CCOc1ccc(Nc2ccc3noc4c3c2C(=O)c2ccccc2-4)cc1", "ASSIGNED CATEGORY": "inactive"}
{"MOLECULE": "CN(Cc1ccccc1)c1oc(-c2ccco2)nc1C#N", "ASSIGNED CATEGORY": "inactive"}
{"MOLECULE": "CCOCCOC(=O)C1=C(C)N(C)C(=O)NC1c1cc(Cl)c(O)c(OCC)c1 (stereo not given)", "ASSIGNED CATEGORY": "inactive"}
{"MOLECULE": "O=C(O)/C=C/c1ccc(-c2ccc(Cl)c(Cl)c2)o1", "ASSIGNED CATEGORY": "inactive"}

Please look at the following molecule next.
For this molecule, state the assay outcome: C=CCN1C(=O)NC(=O)/C(=C\c2ccc(OCc3ccc(Cl)cc3)c(OC)c2)C1=O
inactive

----------
STUDY TARGET: Dual specificity protein phosphatase 6 (Rattus norvegicus) (UniProt Q64346)
ASSAY NOTES: MKP-3 phosphatase inhibitors, primary screen, biochemical, rat enzyme, in vitro (AID 425);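 also: plate controls were vehicle for no effect and reference inhibitor for full effect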
CONDITION SUMMARY: recombinant MKP-3 phosphatase activity, fluorescence; at 20 µM; active compounds read high
In all, about 110,000 compounds went through this assay and about 190 (0.17%) were called active. The sample holds actives, similar compounds and a random draw of the others, so the mix is not that of the screen. Potency and affinity values are given separately.
Listed here are molecules together with their documented inhibition.
Your answer should be a plain number; it is taken to be in %.

{"MOLECULE": "O=C1NC(=O)N(c2ccccc2F)C(=O)/C1=C/c1ccc(I)o1", "inhibition (%)": 12.9}
{"MOLECULE": "O=C(NCCNc1ccc([N+](=O)[O-])cc1Cl)c1ccccc1Cl", "inhibition (%)": 1.6}
{"MOLECULE": "O=C1NC(=O)N(c2ccccc2F)C(=O)/C1=C/c1ccc(OCc2cccc(C(=O)O)c2)cc1", "inhibition (%)": 0.8}

// next entry
I'd like to know its inhibition. The molecule in question is CCn1c(=O)cc(SCC(=O)Nc2ccc3c(c2)OCCO3)c2ccccc21
2.8

Values compiled from PubChem BioAssay AID425.
